All values here come from the supplement of paper PMC10724198.

system: Saccharomyces cerevisiae; assay: protein stability index of tFT-peptide fusion (C-terminal peptide) (PSI (0-1 scale)); higher = more stable (slower turnover); details: genetic background: wild type; temperature: 30 C
RECORDED ENDPOINT: protein stability index
Hey, just send me the number, nothing else.

* NWKNENGRELEE | 0.7

Incoming: Tell us which protein stability index value is on record for DDIGGRKLCVRG
Outgoing: 0.669

Incoming: Tell us which protein stability index value is on record for LDVASTPPLSTL
Outgoing: 0.704

Incoming: Tell us which protein stability index value is on record for SLSVPYPPGLLP
Outgoing: 0.712

Incoming: Tell us which protein stability index value is on record for SLSRLVGPLVSS
Outgoing: 0.611

Incoming: Tell us which protein stability index value is on record for SLPLLPHLPASP
Outgoing: 0.698

###

system: Saccharomyces cerevisiae; assay: protein stability index of tFT-peptide fusion (C-terminal peptide) (PSI (0-1 scale)); higher = more stable (slower turnover); settings: genetic background: cdc53-1; temperature: 37 C
Using protein stability index as the sorting value, the categories are lower level: < 0.5; middle level: ≥ 0.5 and < 0.7; upper level: ≥ 0.7

- SIVDLFRLRSLS: upper level

Incoming: Any idea which band RIEGTLTARTAF is in?
Outgoing: upper level

Incoming: Any idea which band TRVVSPNVILMC is in?
Outgoing: upper level

Incoming: Any idea which band LLTLILRIFVLN is in?
Outgoing: lower level

Incoming: Any idea which band AFFFCVVVLFSF is in?
Outgoing: lower level

Incoming: Any idea which band NHKTIRIQNKSI is in?
Outgoing: upper level

Incoming: Any idea which band GCVVLNTVAFIC is in?
Outgoing: middle level

Incoming: Any idea which band FVSVWVFLVSSF is in?
Outgoing: lower level

Incoming: Any idea which band ALNFFSLFMLFR is in?
Outgoing: lower level

Incoming: Any idea which band KKNITRLKNKMT is in?
Outgoing: middle level

Incoming: Any idea which band SCLVLDYCFSLV is in?
Outgoing: middle level

Incoming: Any idea which band SIQRKIRRMKEN is in?
Outgoing: upper level

Incoming: Any idea which band LLASFWKFIVNI is in?
Outgoing: upper level

Incoming: Any idea which band VLVVASLRFSFF is in?
Outgoing: lower level

Incoming: Any idea which band CVILVSFFCYSA is in?
Outgoing: lower level

Incoming: Any idea which band KVFWRPAWVAEV is in?
Outgoing: upper level

###

Catalogue of protein stability index readings, one per entry.
test system: Saccharomyces cerevisiae; test: protein stability index of tFT-peptide fusion (C-terminal peptide) (PSI (0-1 scale)); higher = more stable (slower turnover); conditions: genetic background: wild type; temperature: 30 C
Hey, just send me the number, nothing else.

• YIARNQKKGMSI [ECT1 C-terminal 12 aa] = 0.67

Incoming: Tell us which protein stability index value is on record for AVHSFNTPAVQS [COX1 C-terminal 12 aa]
Outgoing: 0.676

Incoming: Tell us which protein stability index value is on record for VRKDYIALINQY [ADI1 C-terminal 12 aa]
Outgoing: 0.652

Incoming: Tell us which protein stability index value is on record for LGSSMVQGRSIR [YPK1 C-terminal 12 aa]
Outgoing: 0.661

Incoming: Tell us which protein stability index value is on record for GALREVIKLQKQ [SLX9 C-terminal 12 aa]
Outgoing: 0.656

Incoming: Tell us which protein stability index value is on record for RKNNKKSISYYG [YOR203W C-terminal 12 aa]
Outgoing: 0.731

Incoming: Tell us which protein stability index value is on record for CLRTVLKSDEIK [SFA1 C-terminal 12 aa]
Outgoing: 0.663

Incoming: Tell us which protein stability index value is on record for EKTVNFIKTFGV [GUT2 C-terminal 12 aa]
Outgoing: 0.71

Incoming: Tell us which protein stability index value is on record for ALGMYFLGPALK [YGL063C-A C-terminal 12 aa]
Outgoing: 0.744

###

tested on: Saccharomyces cerevisiae; experiment: protein stability index of tFT-peptide fusion (C-terminal peptide) (PSI (0-1 scale)); higher = more stable (slower turnover); conditions: genetic background: wild type; temperature: 30 C
RECORDED ENDPOINT: protein stability index
Hey, just send me the number, nothing else.

Reference set, count: 10
- FRTTGQAPPSKP: 0.568
- LPPRPRPLPPSP: 0.589
- INKKKKEKKKVE: 0.731
- WAFGFLFISSAM: 0.508
- SRPPSSQSNDEL: 0.66
- PRFPQPSTLLPP: 0.698
- SRISSCSLVRPP: 0.679
- FIKTSDAVIGEK: 0.563
- GSRGGPGGEAAG: 0.652
- RCGSWKGVRGVM: 0.693

With those in mind, consider the next sequence.
Incoming: Tell us which protein stability index value is on record for VIPYLISSLYAV
Outgoing: 0.691

###

Catalogue of protein stability index readings, one per entry.
tested on: Saccharomyces cerevisiae; experiment: protein stability index of tFT-peptide fusion (C-terminal peptide) (PSI (0-1 scale)); higher = more stable (slower turnover); conditions: genetic background: wild type; temperature: 30 C

Reference set, count: 3
- RVSIIYLGVLIS: 0.112
- PSPPLLPPPLYT: 0.658
- FVWRVGGVRRGV: 0.758

Incoming: Tell us which protein stability index value is on record for LLPLPSPLPACP
Outgoing: 0.709

Incoming: Tell us which protein stability index value is on record for RSFPYLLFPPPS
Outgoing: 0.713

Incoming: Tell us which protein stability index value is on record for PPPPPLLPPSLR
Outgoing: 0.671

Incoming: Tell us which protein stability index value is on record for TGPIIPSDNRFL
Outgoing: 0.692

Incoming: Tell us which protein stability index value is on record for RLPYSLTFFLLC
Outgoing: 0.134

Incoming: Tell us which protein stability index value is on record for GGRPDQARPSRH
Outgoing: 0.741

Incoming: Tell us which protein stability index value is on record for FVAPPLCMPLSR
Outgoing: 0.704

Incoming: Tell us which protein stability index value is on record for SYPDYFDSDSSD
Outgoing: 0.716

Incoming: Tell us which protein stability index value is on record for PPAPYPPFPLEL
Outgoing: 0.821

Incoming: Tell us which protein stability index value is on record for CGGAADWRDWGW
Outgoing: 0.775

Incoming: Tell us which protein stability index value is on record for PPLPAPPPPFPP
Outgoing: 0.59

Incoming: Tell us which protein stability index value is on record for ARLGNPHFKIFS
Outgoing: 0.684

Incoming: Tell us which protein stability index value is on record for VGGGEVRAWGLR
Outgoing: 0.661

Incoming: Tell us which protein stability index value is on record for PHMRSPTPLLRP
Outgoing: 0.697

Incoming: Tell us which protein stability index value is on record for PSPLPPPAPHPL
Outgoing: 0.752

Incoming: Tell us which protein stability index value is on record for NLDRYYKKIKLI
Outgoing: 0.15

###

test system: Saccharomyces cerevisiae; experiment: protein stability index of tFT-peptide fusion (C-terminal peptide) (PSI (0-1 scale)); higher = more stable (slower turnover); conditions: genetic background: wild type; temperature: 30 C
Catalogue of protein stability index readings, one per entry.
Hey, just send me the number, nothing else.

Reference set, count: 6
- FLLCGVFFFFFV: 0.245
- WWDCAVWVRCGG: 0.382
- SLALLFSFLLFL: 0.461
- NLSYFFFSVLFF: 0.545
- LGVCLFFVRCWS: 0.184
- PFLLLVSPISSC: 0.302

With those in mind, consider the next sequence.
Incoming: Tell us which protein stability index value is on record for TTSHFCVVLVSV
Outgoing: 0.217

###

test system: Saccharomyces cerevisiae; test: protein stability index of tFT-peptide fusion (C-terminal peptide) (PSI (0-1 scale)); higher = more stable (slower turnover); details: genetic background: wild type; temperature: 30 C
RECORDED ENDPOINT: protein stability index

Reference set, count: 9
• WRNVEITSGSPH = 0.672
• WILDKECFKECD = 0.654
• HCFFSVPFRSGF = 0.691
• SGLRAFVVTLID = 0.673
• RVEADMKKRWTG = 0.716
• RPPPPLSPPSLV = 0.73
• KGQIVIDTKGGG = 0.609
• PPPPPPSPPPPP = 0.713
• SYSPPPLPPHPP = 0.551

With those in mind, consider the next sequence.
Incoming: Tell us which protein stability index value is on record for GSSHLRFRGMEG
Outgoing: 0.614

###

system: Saccharomyces cerevisiae; experiment: protein stability index of tFT-peptide fusion (C-terminal peptide) (PSI (0-1 scale)); higher = more stable (slower turnover); details: genetic background: wild type; temperature: 37 C
RECORDED ENDPOINT: protein stability index
Hey, just send me the number, nothing else.

Reference set, count: 3
- LTFRFGVNPYVF: 0.283
- RLMLSWLALRRC: 0.575
- LIRLCVAPMVCR: 0.485

Incoming: Tell us which protein stability index value is on record for FQFTLWRTLLCS
Outgoing: 0.174

Incoming: Tell us which protein stability index value is on record for LLYHFCLFFFRE
Outgoing: 0.558

Incoming: Tell us which protein stability index value is on record for GRGGLRVVVWLV
Outgoing: 0.143

Incoming: Tell us which protein stability index value is on record for YFCVELSVFGFF
Outgoing: 0.476

Incoming: Tell us which protein stability index value is on record for VCFCFLRFLSLL
Outgoing: 0.24
